system: PANC-1; test: Cytotoxicity against human PANC1 cells assessed as cell viability; type: functional
Readout name: PC100 (µM)

Molecule | Readout name | Unit text | Qualifying sign | Result number
COc1cc(O)c2c(c1C/C=C(\C)CCC=C(C)C)O[C@@H](c1ccccc1)CC2=O | PC100 | µM | = | 128
COc1cc(O)cc(O)c1C(=O)[C@@H]1[C@H](CC=C(C)C)C(C)=CC[C@H]1c1ccc(O)cc1 (racemic) | PC100 | µM | > | 256
COc1cc(O)c(C(=O)[C@@H]2[C@H](CC=C(C)C)C(C)=CC[C@H]2c2ccccc2)c(OC)c1 (racemic) | PC100 | µM | = | 64
COc1cc(O)c(C(=O)[C@@H]2[C@H](CC=C(C)C)C(C)=CC[C@H]2c2ccccc2)c(O)c1 | PC100 | µM | = | 2.5
COc1cc(O)cc2c1C(=O)C[C@@H](c1ccccc1)O2 | PC100 | µM | > | 256
COc1cc(O)cc(O)c1C(=O)[C@@H]1[C@H](CC=C(C)C)C(C)=CC[C@H]1c1ccccc1 | PC100 | µM | = | 16
COc1cc(O)c(C/C=C(\C)CCC=C(C)C)c(O)c1C(=O)/C=C/c1ccccc1 | PC100 | µM | = | 16
COc1cc(O)c(C(=O)/C=C/c2ccc(O)cc2)c(OC)c1 | PC100 | µM | > | 256
CC(C)=CC[C@@H]1C(C)=CC[C@@H](C(=O)c2c(O)cc(O)cc2O)[C@@H]1c1ccccc1 | PC100 | µM | = | 16
COc1cc(C[C@H]2C(=O)OC[C@@H]2Cc2ccc(OC)c(OC)c2)ccc1O | PC100 | µM | = | 1
CC(=O)O[C@H]1C(=O)[C@@]2(C)[C@H]([C@H](OC(=O)c3ccccc3)[C@]3(O)C[C@H](OC(=O)[C@H](O)[C@@H](NC(=O)c4ccccc4)c4ccccc4)C(C)=C1C3(C)C)[C@]1(OC(C)=O)CO[C@@H]1C[C@@H]2O | PC100 | µM | > | 256
CC(C)=CC[C@@H]1C(C)=CC[C@@H](c2ccccc2)[C@@H]1C(=O)c1c(O)cc(O)cc1O [4-HYDROXYPANDURATIN A] | PC100 | µM | = | 16
O=C1C[C@@H](c2ccccc2)Oc2cc(O)cc(O)c21 | PC100 | µM | = | 64
CC(C)=CCC/C(C)=C/COC(=O)c1c(O)cc(O)cc1CCc1ccccc1 | PC100 | µM | = | 16
CC(C)=CCC/C(C)=C/Cc1c(O)cc2c(c1O)C(=O)C[C@@H](c1ccccc1)O2 | PC100 | µM | = | 8
COc1cc2c(c(O)c1C(=O)/C=C/c1ccccc1)C=CC(C)(CCC=C(C)C)O2 (stereo unspecified) | PC100 | µM | = | 64
COc1cc(/C=C/c2ccccc2)oc(=O)c1 | PC100 | µM | > | 256
COc1cc(O)cc2c1C(=O)C[C@@H](c1ccc(O)cc1)O2 | PC100 | µM | > | 256
COc1cc2c(c(O)c1C/C=C(\C)CCC=C(C)C)C(=O)C[C@@H](c1ccccc1)O2 | PC100 | µM | = | 128
COc1cc(O)c(C(=O)[C@@H]2CC=C(C)[C@@H](CC=C(C)C)[C@H]2c2ccccc2)c(O)c1 [(-)-NICOLAIOIDESIN B] | PC100 | µM | = | 2.5
COc1cc(O)cc(O)c1C(=O)[C@@H]1CC=C(C)[C@@H](CC=C(C)C)[C@H]1c1ccccc1 (racemic) | PC100 | µM | = | 8
COc1cc(O)cc(O)c1C(=O)/C=C/c1ccccc1 | PC100 | µM | > | 256
COc1cc(O)c2c(c1)O[C@H](c1ccccc1)CC2=O | PC100 | µM | > | 256
CC(C)=CCCC1(C)C=Cc2c(cc3c(c2O)C(=O)C[C@@H](c2ccccc2)O3)O1 (stereo partly specified) | PC100 | µM | = | 64
COc1cc(O)c(C(=O)/C=C/c2ccccc2)c2c1C=CC(C)(CCC=C(C)C)O2 (stereo unspecified) | PC100 | µM | = | 64
COc1cc(O)c2c(=O)cc(-c3ccccc3)oc2c1 | PC100 | µM | > | 256
